Biological target: T1, human CD19 on CHO cells (human, UniProt P15391 20-556)
T1 construct: whole, on cells; also called Cells Expressing Human CD19; CHO cells overexpressing the antigen
T1 sequence (looked up): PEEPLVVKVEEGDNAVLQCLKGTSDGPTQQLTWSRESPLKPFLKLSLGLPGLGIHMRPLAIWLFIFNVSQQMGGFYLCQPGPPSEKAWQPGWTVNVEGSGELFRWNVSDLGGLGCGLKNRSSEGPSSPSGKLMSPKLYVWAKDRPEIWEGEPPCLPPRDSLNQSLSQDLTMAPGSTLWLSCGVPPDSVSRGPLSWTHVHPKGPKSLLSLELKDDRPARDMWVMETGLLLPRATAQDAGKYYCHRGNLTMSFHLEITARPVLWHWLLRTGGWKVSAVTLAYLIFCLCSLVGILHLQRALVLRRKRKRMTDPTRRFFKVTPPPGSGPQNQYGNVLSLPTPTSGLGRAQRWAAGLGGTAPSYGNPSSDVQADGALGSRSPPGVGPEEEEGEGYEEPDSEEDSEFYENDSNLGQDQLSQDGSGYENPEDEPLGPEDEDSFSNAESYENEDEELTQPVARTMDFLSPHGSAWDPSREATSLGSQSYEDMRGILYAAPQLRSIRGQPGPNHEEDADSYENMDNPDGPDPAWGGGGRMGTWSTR
Assay: flow cytometry, CHO cells, 100 nM IgG
The entries below come with measured Binding to Cells Expressing Human CD19 (FOB) values attached.
endpoint: Binding to Cells Expressing Human CD19 (FOB)

binder: CNG-CD19-705 (antibody, V domains shown, tested as IgG produced in yeast) VH: QVQLQESGPGLVKPSQTLSLTCTVSGGSISTSGMGVGWIRQHPGKGLEWIGHIWWDDDKRYNPALKSRVTISVDTSKNQFSLKLSSVTAADTAVYYCARMELWSYYFDYWGQGTLVTVSS VL: EIVLTQSPATLSLSPGERATLSCSASSSVGYMHWYQQKPGQAPRLLIYDTSSLASGIPARFSGSGSGTDFTLTISSLEPEDFAVYYCFQGSVYPFTFGQGTKLEIK
result: 105 FOB

binder: CNG-CD19-107 (antibody, V domains shown, tested as IgG produced in yeast) VH: QVQLVQSGAEVKKPGASVKVSCKASGYDFTDYIMHWVRQAPGQGLEWMGYINPYNDGSKYTEKFQHRVTMTSDTSISTAYMELSRLRSDDTAVYYCARGTYYYGPQLFDYWGQGTTVTVSS VL: DIVMTQTPLSLSVTPGQPASISCKSSQSLETSTGTTYLNWYLQKPGQSPQLLIYRVSRRFSGVPDRFSGSGSGTDFTLKISRVEAEDVGVYYCLQLLEDPYTFGQGTKLEIK
result: 315 FOB

binder: CNG-CD19-7 (antibody, V domains shown, tested as IgG; also called parental antibody) VH: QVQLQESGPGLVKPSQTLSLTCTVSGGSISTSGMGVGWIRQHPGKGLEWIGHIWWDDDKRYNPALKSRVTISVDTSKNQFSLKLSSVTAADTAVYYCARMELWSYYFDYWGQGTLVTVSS VL: EIVLTQSPATLSLSPGERATLSCSASSSVSYMHWYQQKPGQAPRLLIYDTSKLASGIPARFSGSGSGTDFTLTISSLEPEDFAVYYCFQGSVYPFTFGQGTKLEIK
result: 71 FOB

binder: CNG-CD19-709 (antibody, V domains shown, tested as IgG produced in yeast) VH: QVQLQESGPGLVKPSQTLSLTCTVSGGSISTSTMGVGWIRQHPGKGLEWIGFIWWDDDKRYNPNLKSRVTMSVDTSKNQFSLKLSSVTAADTAVYYCARMELWSYYFDPWGQGTLVTVSS VL: EIVLTQSPATLSLSPGERATLSCSASSSVGYMHWYQQKPGQAPRLLIYDTSKLAFGIPARFSGSGSGTDFTLTISSLEPEDFAVYYCFQGSVYPFTFGQGTKLEIK
result: 234 FOB
